The origin of these recorded values is patent US20060276407A1.

protocol.description: Phase 1 rising-single-dose pharmacokinetic study in healthy adult subjects (Example 1)
Assay type: in vivo, human
test.parameters: human, plasma, po, 400 mg, single oral dose 400 mg, mean, n = 6; read-out: AUC(l)
Procedure: A Phase 1, randomized, third-party-blind (within dose level), placebo-controlled, rising-single-dose study of compounds of Formulae I-XXVI was conducted in healthy adult subjects. […] Plasma concentrations of compound of Formula Ia were determined using a validated liquid chromatography tandem mass spectrometry (LC-MS/MS) method. The assay lower limit of quantitation (LLOQ) was 0.50 ng/mL, and the method was validated over the concentration range of 0.50 to 1000 ng/mL. […]
value.type: AUC (ng·h/mL)
Output spec: scalar in ng·h/mL, unitless text.

Could you tell me which AUC is on file for CC(C)(C)NC(=O)N[C@H](C(=O)N1C[C@H]2[C@@H]([C@H]1C(=O)NC(CC1CCC1)C(=O)C(N)=O)C2(C)C)C(C)(C)C (mixture of isomers) ?
1560

* * *

protocol.description: Multiple oral dosing for 14 days, pharmacokinetics in HCV infected subjects (Example 3)
Assay type: in vivo, human
test.parameters: human, plasma, oral, 100 mg, Day 1, 100 mg BID, mean; read-out: AUC(0-12 hr)
Protocol: Multiple escalating doses of compound of Formula Ia were administered for 14 days to HCV positive subjects who were genotype 1 Interferon-a (with or without ribavirin) non responders. In a randomized, placebo controlled, third party blind study, multiple doses of 100 mg BID, 200 mg BID, 400 mg BID, 400 mg TID, and 600 mg TID of compound of Formula Ia or placebo in a 3:1 ratio with or without food were evaluated. […]
value.type: AUC(0-t)
Kindly report the value followed by its unit.

Using the record for CC(C)(C)NC(=O)N[C@H](C(=O)N1C[C@H]2[C@@H]([C@H]1C(=O)NC(CC1CCC1)C(=O)C(N)=O)C2(C)C)C(C)(C)C (mixture of isomers) [Formula Ia] , report its AUC(0-t).
417 ng·h/mL

* * *

protocol.description: Multiple oral dosing for 14 days, pharmacokinetics in HCV infected subjects (Example 3)
Format: in vivo, human
test.parameters: human, plasma, oral, 100 mg, Day 14, 100 mg BID, mean
value.type: Cmax (ng/mL)
Answer with a number only, understood to be in ng/mL.

Any idea what its Cmax is? The compound is CC(C)(C)NC(=O)N[C@H](C(=O)N1C[C@H]2[C@@H]([C@H]1C(=O)NC(CC1CCC1)C(=O)C(N)=O)C2(C)C)C(C)(C)C (mixture of isomers) [Formula Ia]
193

* * *

protocol.description: Multiple oral dosing for 14 days, pharmacokinetics in HCV infected subjects (Example 3)
Assay type: in vivo, human
test.parameters: human, plasma, oral, 400 mg, Day 1, 400 mg BID, mean; read-out: AUC(0-12 hr)
value.type: AUC(0-t) (ng·h/mL)
Field format: number, assumed ng·h/mL, no unit text.

Could you share which AUC(0-t) value was measured for CC(C)(C)NC(=O)N[C@H](C(=O)N1C[C@H]2[C@@H]([C@H]1C(=O)NC(CC1CCC1)C(=O)C(N)=O)C2(C)C)C(C)(C)C (mixture of isomers) [Formula Ia] ?
1680

* * *

protocol.description: Phase 1 rising-single-dose pharmacokinetic study in healthy adult subjects (Example 1)
Assay type: in vivo, human
test.parameters: human, plasma; single oral dose 200 mg, mean, n = 6
value.type: Vd/F (L)
# value in L; strip the unit string

Recorded Vd/F of CC(C)(C)NC(=O)N[C@H](C(=O)N1C[C@H]2[C@@H]([C@H]1C(=O)NC(CC1CCC1)C(=O)C(N)=O)C2(C)C)C(C)(C)C (mixture of isomers) [Formula Ia] , please.
3840
